Hey, just so you know, these numbers are from patent US8481546B2.

# assay.overview: One-week comparative intranasal irritation study in rats: toxicokinetics
# protocol.conditions: male, rat, in vivo, inhaled or intranasal, 5 mg, intranasal 5 mg (0.357 mg/cm^2) once daily, Day 0, read-out: Mean T1/2 (converted)
# Description: This study was conducted to compare potential nasal irritation of Compound I to Compound III when given intranasally to male rats for 1 week. […] Parameters evaluated included clinical observations, body weight, food consumption, toxicokinetics, and histological evaluation of nasal tissues.

[
  {
    "molecule": "Cc1cc(C[C@@H](NC(=O)N2CCC(c3cc4ccccc4[nH]c3=O)CC2)C(=O)N2CCN(C3CCN(C)CC3)CC2)cc2cn[nH]c12 [Compound I]",
    "half-life / min": 426
  }
]
